Target: epithelial sodium channel (ENaC) (Homo sapiens, UniProt P37088+P51168+P51170)
Sequence (P37088 1-669): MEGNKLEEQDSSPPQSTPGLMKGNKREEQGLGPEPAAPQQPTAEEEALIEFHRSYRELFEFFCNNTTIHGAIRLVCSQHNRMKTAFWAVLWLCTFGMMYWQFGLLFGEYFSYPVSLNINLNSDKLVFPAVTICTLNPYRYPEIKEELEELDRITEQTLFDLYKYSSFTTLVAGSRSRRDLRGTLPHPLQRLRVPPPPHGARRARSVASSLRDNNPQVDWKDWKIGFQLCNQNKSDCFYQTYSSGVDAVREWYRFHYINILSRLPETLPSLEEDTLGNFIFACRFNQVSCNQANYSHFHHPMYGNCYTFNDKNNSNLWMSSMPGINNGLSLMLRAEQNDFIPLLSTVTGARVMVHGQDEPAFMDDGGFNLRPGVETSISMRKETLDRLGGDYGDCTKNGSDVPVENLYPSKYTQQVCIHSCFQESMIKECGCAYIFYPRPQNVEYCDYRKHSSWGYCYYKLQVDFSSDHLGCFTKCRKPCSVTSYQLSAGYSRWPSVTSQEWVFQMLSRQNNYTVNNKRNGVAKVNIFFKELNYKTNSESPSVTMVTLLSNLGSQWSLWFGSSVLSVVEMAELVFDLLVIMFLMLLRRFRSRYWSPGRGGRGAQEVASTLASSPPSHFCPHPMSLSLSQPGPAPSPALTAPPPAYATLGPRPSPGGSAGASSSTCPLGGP
Sequence (P51168 1-640): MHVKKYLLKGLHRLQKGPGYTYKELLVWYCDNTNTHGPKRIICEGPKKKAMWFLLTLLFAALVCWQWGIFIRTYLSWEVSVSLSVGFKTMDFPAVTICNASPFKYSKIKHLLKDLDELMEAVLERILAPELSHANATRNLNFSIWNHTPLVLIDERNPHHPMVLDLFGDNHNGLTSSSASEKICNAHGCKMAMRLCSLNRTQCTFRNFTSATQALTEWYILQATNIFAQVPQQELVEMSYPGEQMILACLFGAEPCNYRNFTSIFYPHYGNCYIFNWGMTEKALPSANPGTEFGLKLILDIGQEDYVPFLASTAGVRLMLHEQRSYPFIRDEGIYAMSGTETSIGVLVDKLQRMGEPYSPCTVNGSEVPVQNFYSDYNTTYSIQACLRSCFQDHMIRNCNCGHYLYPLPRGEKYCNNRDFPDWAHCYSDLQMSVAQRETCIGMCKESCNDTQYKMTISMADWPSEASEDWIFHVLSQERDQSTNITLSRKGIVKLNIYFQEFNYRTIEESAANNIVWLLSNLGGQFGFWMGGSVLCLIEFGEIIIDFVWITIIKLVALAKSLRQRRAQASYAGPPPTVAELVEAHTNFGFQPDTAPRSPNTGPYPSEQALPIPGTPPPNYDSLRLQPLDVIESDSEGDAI
Sequence (P51170 1-649): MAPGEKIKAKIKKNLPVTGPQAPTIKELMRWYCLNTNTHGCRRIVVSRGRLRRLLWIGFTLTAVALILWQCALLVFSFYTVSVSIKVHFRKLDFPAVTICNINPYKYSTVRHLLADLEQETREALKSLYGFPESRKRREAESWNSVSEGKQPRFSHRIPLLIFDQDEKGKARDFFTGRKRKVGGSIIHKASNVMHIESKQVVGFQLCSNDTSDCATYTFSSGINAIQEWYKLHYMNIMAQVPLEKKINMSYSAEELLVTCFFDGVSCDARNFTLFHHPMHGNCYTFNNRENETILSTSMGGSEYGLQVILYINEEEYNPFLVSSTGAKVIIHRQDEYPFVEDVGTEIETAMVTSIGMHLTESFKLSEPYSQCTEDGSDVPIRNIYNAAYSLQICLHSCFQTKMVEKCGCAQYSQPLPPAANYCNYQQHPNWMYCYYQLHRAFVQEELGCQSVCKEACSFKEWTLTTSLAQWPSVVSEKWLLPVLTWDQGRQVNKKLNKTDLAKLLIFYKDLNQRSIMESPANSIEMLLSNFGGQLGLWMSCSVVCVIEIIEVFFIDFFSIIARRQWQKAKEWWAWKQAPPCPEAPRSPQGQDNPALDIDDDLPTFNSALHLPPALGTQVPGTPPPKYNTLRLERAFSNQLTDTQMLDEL
Test: Short circuit current (ISC) measurements in human bronchial epithelial cells, inhibition of amiloride-sensitive ISC
Conditions: inhibition of the amiloride-sensitive ISC; HBECs cultured at air-liquid interface, Ussing chamber, compound added to apical chamber
pIC50: −log10 of the molar value. Counter-ions that a name gives are not always drawn.
Attribute: pIC50
Measure: pIC50

>>> val("CCC[C@@H](CNC(=O)c1nc(Cl)c(N)nc1N)[N+](C)(C)CCCc1ccc(OC)cc1 [Example 120, trifluoroacetate]")
8.40
>>> val("C[N+](C)(C)[C@@H](CCCCNC(=O)CCc1ccc(OCc2ccccc2)cc1)CNC(=O)c1nc(Cl)c(N)nc1N")
7.34
>>> val("C[N+](C)(CCNC(=O)c1nc(Cl)c(N)nc1N)CCNS(=O)(=O)Cc1ccc(Cl)cc1")
6.27
>>> val("C[N+]1(C)CCC[C@@H]1CNC(=O)c1nc(Cl)c(N)nc1N")
5.27
>>> val("CCC[C@@H](CNC(=O)c1nc(Cl)c(N)nc1N)[N+](C)(C)CCCc1ccc(O)cc1 [Example 121, trifluoroacetate]")
8.00
>>> val("C[N+](C)(CCNC(=O)CCc1ccccc1)CCNC(=O)c1nc(Cl)c(N)nc1N")
6.85
>>> val("COc1ccc(CCC[N+](CCCc2ccc(OC)cc2)(CCNC(=O)c2nc(Cl)c(N)nc2N)Cc2ccccc2)cc1 [Example 23, trifluoroacetate]")
7.47
